target: G-protein coupled receptor 55 (Homo sapiens); assay: Antagonist activity at human GPR55 transfected in CHO cells assessed as inhibition of LPI-induced beta-arrestin recruitment incubated 60 mins prior to LPI addition by beta-arrestin translocation assay; format: cell-based
Sequence (Q9Y2T6 whole entry): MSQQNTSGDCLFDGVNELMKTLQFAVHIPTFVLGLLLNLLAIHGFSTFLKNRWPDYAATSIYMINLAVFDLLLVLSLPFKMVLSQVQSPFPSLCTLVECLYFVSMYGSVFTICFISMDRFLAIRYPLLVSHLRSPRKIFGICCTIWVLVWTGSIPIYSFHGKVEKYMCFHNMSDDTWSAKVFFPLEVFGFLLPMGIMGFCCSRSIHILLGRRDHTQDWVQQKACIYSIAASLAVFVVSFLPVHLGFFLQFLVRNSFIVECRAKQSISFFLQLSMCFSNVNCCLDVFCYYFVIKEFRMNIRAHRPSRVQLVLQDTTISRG
Task for the reader: assign each of the following compounds its reported pIC50.
pIC50 (log units): -log10 of the concentration in mol/L.

Query: // lookup pIC50 | system=G-protein coupled receptor 55 (Homo sapiens) | key= COc1ccccc1Cc1cc2c(C)ccc(C)c2oc1=O
Response: 5.15

Query: G-protein coupled receptor 55 (Homo sapiens) / pIC50 / CCCCCc1cc(OC)c2cc(Cc3cccc(OC)c3)c(=O)oc2c1 : value?
Response: 5.49

Query: GET /values?readout=pIC50&system=G-protein coupled receptor 55 (Homo sapiens)&item= COc1c(C)c(C)c2oc(=O)c(Cc3ccccc3)cc2c1C
Response: 4.89

Query: # query: pIC50 | item CCCCCc1cc(OC)c2cc(Cc3ccccc3C)c(=O)oc2c1 | system: G-protein coupled receptor 55 (Homo sapiens)
Response: 5.29

Query: Given the entry CCCCCc1cc(OC)c2cc(Cc3ccccc3Cl)c(=O)oc2c1 , what pIC50 was observed with G-protein coupled receptor 55 (Homo sapiens)?
Response: 5.05

* * *

target: Cannabinoid receptor 2 (Homo sapiens); assay: Displacement of [3H]-CP55,940 from human CB2 receptor transfected in CHOK1 cells at 10 uM; format: cell-based; details: CHO-K1
Sequence (P34972 whole entry): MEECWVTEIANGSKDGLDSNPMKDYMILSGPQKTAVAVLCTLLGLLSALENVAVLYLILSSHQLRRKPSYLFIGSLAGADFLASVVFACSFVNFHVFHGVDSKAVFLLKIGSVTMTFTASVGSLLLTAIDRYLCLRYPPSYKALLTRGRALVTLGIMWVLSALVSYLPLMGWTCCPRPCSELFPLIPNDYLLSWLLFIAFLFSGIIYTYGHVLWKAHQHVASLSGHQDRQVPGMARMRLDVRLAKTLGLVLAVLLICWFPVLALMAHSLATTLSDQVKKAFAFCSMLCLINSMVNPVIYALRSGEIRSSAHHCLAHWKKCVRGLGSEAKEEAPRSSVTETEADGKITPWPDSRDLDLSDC
Answer each item with its documented Activity.
Param answer (str): number followed by unit.

Query: What value of measured Activity is listed for CCCCC1(c2cc(OC)c3cc(Cc4ccccc4OC)c(=O)oc3c2)CCCCC1 ?
Response: 45%

Query: Which Activity is reported for this molecule? CCCCCCCC(C)(C)c1cc(OC)c2cc(Cc3ccccc3OC)c(=O)oc2c1
Response: 47%

Query: Bench note: what Activity did Cc1ccc(C(C)C)c2cc(Cc3ccccc3O)c(=O)oc12 show?
Response: 24%

Query: Look up Activity for this molecule: Cc1ccc(C(C)C)c2cc(Cc3ccccc3)c(=O)oc12
Response: 24%

Query: Which value of Activity has been reported for Cc1cc2c(C(C)C)ccc(C)c2oc1=O in the records?
Response: 0%

* * *

molecular target: UniProt:Q9Y2T6; assay: Antagonist activity at human GPR55 transfected in CHO cells assessed as inhibition of LPI-induced beta-arrestin recruitment incubated 60 mins prior to LPI addition by beta-arrestin translocation assay
Provide the recorded IC50 for the entries that follow.
Output spec: scalar in µM, unitless text.

Query: Consider the compound CCCCCc1cc(OC)c2cc(Cc3ccc(Br)cc3)c(=O)oc2c1 and give its measured IC50.
Response: 3.76

Query: Endpoint output: IC50 of CCCCC1(c2cc(O)c3cc(Cc4ccccc4O)c(=O)oc3c2)CCCC1 . Value?
Response: 0.854

Query: Recorded IC50 of Cc1c(O)c(C)c2cc(Cc3ccc(F)cc3)c(=O)oc2c1C , please.
Response: 10.3

* * *

biological target: N-arachidonyl glycine receptor (Homo sapiens); assay: Antagonist activity at human GPR18 transfected in CHO cells assessed as delta9-THC-induced beta-arrestin recruitment at 10 uM incubated 60 mins prior to delta9-THC addition by beta-arrestin translocation assay; assay type: cell-based; design: scale not given: the % may be the effect or the level left
measurement.type: Activity
Enter the number, and then the unit.

Query: Can you look up the measured Activity of COc1cccc(Cc2cc3c(OC)cc(Br)cc3oc2=O)c1 for me?
Response: 31%

Query: Which Activity is listed for CCCCCCC(C)(C)c1cc(OC)c2cc(Cc3ccccc3OC)c(=O)oc2c1 ?
Response: 26%

Query: Value lookup for Activity; key = Cc1ccc(C(C)C)c2cc(Cc3ccccc3O)c(=O)oc12
Response: 32%

Query: Activity for CCCCCc1cc(OC)c2cc(Cc3ccc(Br)cc3)c(=O)oc2c1 ?
Response: 30%

Query: Endpoint output: Activity of CCCCCCC(C)(C)c1cc(OC)c2cc(Cc3ccccc3)c(=O)oc2c1 . Value?
Response: 31%

Query: Name the recorded Activity for Cc1cc2c(C(C)C)ccc(C)c2oc1=O .
Response: 11%

Query: Dear colleague, I am looking for the recorded Activity of the following compound: Cc1c(O)c(C)c2cc(Cc3ccc(F)cc3)c(=O)oc2c1C
Response: 47%

Query: Which value of Activity has been reported for COc1cc(C)cc2oc(=O)c(Cc3ccccc3)cc12 in the records?
Response: 24%

Query: Reported Activity, compound CCCCCc1cc(O)c2cc(Cc3ccccc3Cl)c(=O)oc2c1 : ____
Response: 0%

Query: What Activity value was documented for this compound, COc1c(C)c(C)c2oc(=O)c(Cc3ccccc3C)cc2c1C ?
Response: 33%

Query: Activity for COc1ccccc1Cc1cc2c(C)c(OC)c(C)c(C)c2oc1=O ?
Response: 27%

Query: What value of Activity has been recorded for this entry: CCCCCc1cc(OC)c2cc(Cc3ccccc3OC)c(=O)oc2c1
Response: 20%

Query: I am curious: what Activity value has been reported for COc1ccccc1Cc1cc2c(C)ccc(C)c2oc1=O ?
Response: 0%

Query: # lookup: Activity of CCCCCc1cc(O)c2cc(Cc3cccc(O)c3)c(=O)oc2c1
Response: 27%

Query: Data request, read-out Activity, for CCCCCc1cc(OC)c2cc(Cc3ccccc3C)c(=O)oc2c1
Response: 34%

Query: Any idea what its Activity is? The compound is COc1c(C)c(C)c2oc(=O)c(Cc3ccccc3)cc2c1C
Response: 46%

Query: Sample CCCCCc1cc(OC)c2cc(Cc3ccccc3Cl)c(=O)oc2c1 — what was its Activity?
Response: 25%

Query: # input compound: Cc1ccccc1Cc1cc2c(C)c(O)c(C)c(C)c2oc1=O ; wanted: its Activity
Response: 38%

* * *

biological target: N-arachidonyl glycine receptor (Homo sapiens, UniProt Q14330); assay: Antagonist activity at human GPR18 transfected in CHO cells assessed as delta9-THC-induced beta-arrestin recruitment incubated 60 mins prior to delta9-THC addition by beta-arrestin translocation assay
Sequence (Q14330 whole entry): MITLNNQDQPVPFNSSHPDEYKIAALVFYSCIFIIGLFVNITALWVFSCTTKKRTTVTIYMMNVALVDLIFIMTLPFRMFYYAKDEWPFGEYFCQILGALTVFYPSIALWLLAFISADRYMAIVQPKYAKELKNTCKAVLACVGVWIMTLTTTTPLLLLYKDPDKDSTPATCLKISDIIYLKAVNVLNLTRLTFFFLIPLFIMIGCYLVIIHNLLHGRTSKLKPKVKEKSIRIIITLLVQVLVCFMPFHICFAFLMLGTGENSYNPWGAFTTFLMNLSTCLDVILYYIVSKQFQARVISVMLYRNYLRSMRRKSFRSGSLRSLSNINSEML
Could you please report measured IC50 for the items listed next?

Query: Requested field: IC50. Item: CCCCCc1cc(OC)c2cc(Cc3ccccc3Cl)c(=O)oc2c1
Response: > 10 µM

Query: Any idea what IC50 was measured for CCCCCc1cc(OC)c2cc(Cc3cccc(OC)c3)c(=O)oc2c1 ?
Response: > 10 µM

Query: Which measured IC50 value corresponds to COc1ccccc1Cc1cc2c(C)c(OC)c(C)c(C)c2oc1=O ?
Response: > 10 µM

Query: Consider the compound shown here: Cc1c(O)c(C)c2cc(Cc3ccc(F)cc3)c(=O)oc2c1C What is its recorded IC50?
Response: ≥ 10 µM

Query: Look up IC50: COc1c(C)c(C)c2oc(=O)c(Cc3ccccc3C)cc2c1C
Response: > 10 µM

Query: Would you kindly share the measured IC50 for CCCCCc1cc(O)c2cc(Cc3cccc(O)c3)c(=O)oc2c1 ?
Response: > 10 µM

Query: Can you look up the measured IC50 of CCCCCc1cc(OC)c2cc(Cc3ccc(Cl)cc3)c(=O)oc2c1 for me?
Response: 10 µM

Query: Using the record for Cc1ccccc1Cc1cc2c(C)c(O)c(C)c(C)c2oc1=O , report its IC50.
Response: > 10 µM

Query: Would you mind telling me what IC50 value was observed for COc1c(C)c(C)c2oc(=O)c(Cc3ccc(F)cc3)cc2c1C ?
Response: > 10 µM

Query: I am curious: what IC50 value has been reported for CCCCCCCC(C)(C)c1cc(O)c2cc(Cc3ccccc3O)c(=O)oc2c1 ?
Response: 12.5 µM

Query: Fill in the blank: the reported IC50 of Cc1cc2c(C(C)C)ccc(C)c2oc1=O is ____.
Response: > 10 µM

Query: Entry under review: CCCCCCC(C)(C)c1cc(O)c2cc(Cc3ccccc3)c(=O)oc2c1 . Reported IC50?
Response: 8.1 µM

Query: Record request: IC50 value, item CCCCC1(c2cc(O)c3cc(Cc4ccccc4O)c(=O)oc3c2)CCCCC1
Response: ≥ 10 µM

Query: Entry under review: COc1c(C)c(C)c2oc(=O)c(Cc3ccccc3)cc2c1C . Reported IC50?
Response: ≥ 10 µM

Query: Request the reported IC50 associated with CCCCC1(c2cc(OC)c3cc(Cc4ccccc4OC)c(=O)oc3c2)CCCCC1
Response: > 10 µM

Query: Record request: IC50 value, item CCCCCc1cc(OC)c2cc(Cc3ccccc3C)c(=O)oc2c1
Response: > 10 µM

Query: Sample COc1ccccc1Cc1cc2c(C)ccc(C)c2oc1=O — what was its IC50?
Response: > 10 µM

Query: Can you look up the measured IC50 of COc1cc(C)cc2oc(=O)c(Cc3ccccc3)cc12 for me?
Response: > 10 µM

Query: Returns the measured IC50 for the input compound. Input: Cc1ccc(C(C)C)c2cc(Cc3ccccc3)c(=O)oc12
Response: > 10 µM

Query: // lookup IC50 for CCCCCc1cc(O)c2cc(Cc3ccccc3Cl)c(=O)oc2c1
Response: > 10 µM

Query: Endpoint output: IC50 of CCCCCCC(C)(C)c1cc(OC)c2cc(Cc3ccccc3OC)c(=O)oc2c1 . Value?
Response: > 10 µM

Query: Which IC50 reading was recorded for the compound Cc1c(O)c(C)c2cc(Cc3ccccc3)c(=O)oc2c1C ?
Response: > 10 µM

Query: Recorded IC50 of CCCCCc1cc(O)c2cc(Cc3ccccc3C)c(=O)oc2c1 , please.
Response: > 10 µM

Query: Please look up its IC50: CCCCCCC(C)(C)c1ccc([C@@H]2C[C@H](O)CC[C@H]2CCCO)c(O)c1 [CP-55940]
Response: 5.99 µM

Query: Recorded IC50 of CCCCCCC(C)(C)c1cc(OC)c2cc(Cc3ccccc3)c(=O)oc2c1 , please.
Response: > 10 µM

Query: Need IC50 of CCCCCc1cc(OC)c2cc(Cc3ccccc3OC)c(=O)oc2c1 , thanks.
Response: > 10 µM
